- Method notes: qHTS RealTime-Glo MT Cell Viability Assay in HEK293 cells - 32 hour (AID 1224868); further: nearly all actives have a fitted effect of over 50% in size
- Experimental parameters: RealTime-Glo luminescence; series mostly up to 76.8 µM
Inconclusive results are not listed. The source made the active and inactive calls. The call rests on the fitted dose curve; in most records, active means well fitted cell-killing curve with a large enough effect in the repeat runs; inconclusive means weak or mixed curves, or effect the other way; inactive means flat fitted curve, though single readings scatter.
Classes used: active, inactive

| Molecule | Cat |
| --- | --- |
| CCCCCCCCS | inactive |
| Oc1ccc(Oc2ccccc2)cc1 | active |
| Nc1ncnc2c1ncn2[C@@H]1O[C@H](CO)[C@@H](O)[C@H]1O | inactive |
| C/C(=C(\CCO)SS/C(CCO)=C(\C)N(C=O)Cc1cnc(C)nc1N)N(C=O)Cc1cnc(C)nc1N | inactive |
| C=C[Si]1(C)O[Si](C)(C=C)O[Si](C)(C=C)O[Si](C)(C=C)O1 (configuration not stated) | inactive |
| CCCCCCCCCCCC(=O)OCC | inactive |
| NC(=O)c1cc[n+](CC2=C(C(=O)[O-])N3C(=O)[C@@H](NC(=O)Cc4cccs4)[C@H]3SC2)cc1 | inactive |
| C=CCCC | inactive |
| C[C@H](N)C(=O)N[C@@H](C)C(=O)NC1[C@H]2CN(c3nc4c(cc3F)c(=O)c(C(=O)O)cn4-c3ccc(F)cc3F)C[C@@H]12 (some centres not stated) | inactive |
| CCOc1cc(OCC)c(C(C)=O)cc1OCC | active |
| Cc1cc(C)c(C)c(O)c1 | inactive |
| CCCCCCCCOCCCN | inactive |

---

- Method notes: qHTS assay to identify small molecule antagonists of the farnesoid-X-receptor (FXR) signaling pathway - cell viability counter screen (AID 743221); further: nearly all actives have a fitted effect of over 50% in size
- Experimental parameters: FXR-bla HEK293T viability, CellTiter-Glo luminescence, 16 h; series mostly up to 62.6 µM
Results filed as inconclusive are left out. Activity calls are given as the source filed them. The call rests on the fitted dose curve; in most records, active means well fitted cell-killing curve with a large enough effect in the repeat runs (not every such curve was filed as active); inconclusive means weak or mixed curves, or effect the other way; inactive means no such curve, though single readings can be large or run the other way.

| Molecule | activity change, negative = cytotoxicity |
| --- | --- |
| CC(CCl)OC(C)CCl (centres undefined) | inactive |
| CCN(CC)CC(=O)OCC(=O)[C@@]1(O)CC[C@H]2[C@@H]3CCC4=CC(=O)CC[C@]4(C)[C@H]3[C@@H](O)C[C@@]21C | inactive |
| CC(C)=CCC[C@H](C)CCO | inactive |
| O=C(O)CNc1ccccc1 | inactive |
| O=C(c1ccc(Cl)cc1)c1ccc(Cl)cc1 | inactive |
| O=Cc1ccc([N+](=O)[O-])cc1 | inactive |
| O=S(=O)(O)c1cc(Cl)c(Cl)cc1Cl | inactive |
| CCCCCC1CCC(=O)O1 (centres undefined) | inactive |
| O=C(NC1CCN(CCc2c[nH]c3ccccc23)CC1)c1ccccc1 | inactive |
| CC(C)=CCCC(C)C=O (centres undefined) | inactive |
| Cc1c(N=C=O)cccc1N=C=O | inactive |
| COc1ccc(C(=O)c2ccc(C)cc2)c(O)c1 | inactive |
| CCOC(OCC)OCC | inactive |
| CC(CN=Cc1ccccc1O)N=Cc1ccccc1O (centres undefined) | inactive |

---

- Target: Aryl hydrocarbon receptor (Homo sapiens)
- Method notes: qHTS assay to identify small molecule that activate the aryl hydrocarbon receptor (AhR) signaling pathway (AID 743085); further: nearly all actives have a fitted effect of over 15% in size;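 on activation: HG2L7.5c1 human HepG2 liver cells with stably integrated DRE-driven firefly reporter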
- Experimental parameters: HepG2 AhR-luc (HG2L7.5c1), luciferase, 24 h; series mostly up to 70.3 µM
Inconclusive results are not listed. Activity calls are given as the source filed them. Calls come from the whole dose curve; as a rule, active = well fitted activation curve with a large enough effect in the repeat runs; inconclusive = weak or mixed curves; inactive = no such curve, though single readings can be large or run the other way.
Classes used: YES (active), NO (inactive)

| Compound | Cat |
| --- | --- |
| C[C@@H](O)[C@H]1C(=O)N2C(C(=O)O)=C(S[C@@H]3CN[C@H](CNS(N)(=O)=O)C3)[C@H](C)[C@H]12 | NO |
| CCC1=C(C)CN(C(=O)NCCc2ccc(S(=O)(=O)NC(=O)NC3CCC(C)CC3)cc2)C1=O (stereo not given) | NO |
| Cc1ccccc1CCO | NO |
| CCCN(C1CCN(C(=O)C2CCNCC2)CC1)[C@@H]1CCc2ccc(OC)cc2C1 | NO |
| C/C(=C(\CCO)SS/C(CCO)=C(\C)N(C=O)Cc1cnc(C)nc1N)N(C=O)Cc1cnc(C)nc1N | NO |
| Cc1cc(C)c(C)c(O)c1 | NO |
| O=C(OC1C[C@H]2CC[C@@H](C1)[N+]21CCCC1)C(O)(c1ccccc1)c1ccccc1 (stereo not given in full) | NO |
| O=S(=O)(O)c1cc(Cl)c(Cl)cc1Cl | NO |
| CC1=CC(=C(c2ccc(N)cc2)c2ccc(N)cc2)C=CC1=N | NO |
| Oc1ccc(Oc2ccccc2)cc1 | NO |
| O=Cc1ccc(Cl)c([N+](=O)[O-])c1 | NO |
| CCOCCn1c(N2CCCN(C)CC2)nc2ccccc21 | NO |
| O=C(O)c1cccnc1Nc1cccc(C(F)(F)F)c1 | NO |
| O=[N+]([O-])c1ccc(Cl)cc1Cl | NO |
| CCc1ccc2c(c1)C(=O)c1ccccc1C2=O | YES |
| O=[N+]([O-])c1cccc(I)c1 | NO |
| COc1ccc(C(=O)c2ccc(C)cc2)c(O)c1 | YES |
| O=C(O)c1c2ccccc2cc2ccccc12 | NO |
| CO[C@@H]1COCC[C@@H]1N[C@@H]1CC[C@@](C(=O)N2CCc3ncc(C(F)(F)F)cc3C2)(C(C)C)C1 | NO |
| CCCCOc1ccc(N)cc1 | NO |
| CCOc1ccccc1O | NO |
| O=C(Cl)c1cc(Cl)cc(Cl)c1 | NO |
| CCn1nc(Cc2ccccc2)cc1C1CCN(C[C@H]2C[C@H](N(C)[C@@H](C(=O)O)C(C)C)C[C@@H]2c2cccc(F)c2)CC1 | NO |
| CC(=O)Nc1ccn(C2COC(COC(=O)c3ccccc3)O2)c(=O)n1 (stereo not given) | NO |
| CCCCOC(=O)C(C)Oc1ccc(Oc2ccc(C(F)(F)F)cn2)cc1 (stereo not given) | NO |
